test: Acute toxicity and tolerability in rat; conditions: in vivo, po
MEASURED_PROPERTY: LD50

Suppose we examine the molecule Cl.Cl.O=c1cc(CN2CCOCC2)occ1OCCCCCSc1ccnc2cc(C(F)(F)F)ccc12 [compound 38] ; what LD50 value has been reported?
> 1000 mg/kg

====

target: Recombinant Rac2 (Homo sapiens, UniProt P15153); assay: biochemical
MEASURED_PROPERTY: pKd
Numbers only, as −log10 of the molar value.

Can you look up pKd on Recombinant Rac2 (Homo sapiens, UniProt P15153) for Cl.Cl.O=c1cc(CN2CCOCC2)occ1OCCCCCSc1ccnc2cc(C(F)(F)F)ccc12 [compound 38, dihydrochloride] ?
7.22

====

test: Acute toxicity and tolerability in rat; conditions: in vivo, iv
MEASURED_PROPERTY: LD50 (mg/kg)
One number for each entry, in mg/kg.

Suppose we examine the molecule Cl.Cl.O=c1cc(CN2CCOCC2)occ1OCCCCCSc1ccnc2cc(C(F)(F)F)ccc12 ; what LD50 value has been reported?
50

This collection of values is drawn from patent US20090093471A1.
